Biological target: full length active recombinant SYK enzyme (Homo sapiens)
Construct: full length active recombinant SYK enzyme (Millipore, Calif.); purchased Millipore
Assay: Inhibition of Syk tyrosine phosphorylation activity (LANCE TR-FRET kinase assay)
Type: biochemical
Settings: activity in the Syk assays, class symbols
QUANTITY MEASURED: IC50

compound=CC(C)C[C@@H](Nc1cnc(C(N)=O)c(Nc2ccc(N3CCC3)nc2)n1)C(N)=O value_observed="10 to 100 nM"
compound="Cc1cccc(Nc2nc(N[C@@H]3CCCC[C@@H]3N)cnc2C(N)=O)c1 [Example 61]" value_observed="100 to 1000 nM"
compound=CCc1ccc(Nc2nc(N[C@H](CC(C)C)C(N)=O)cnc2C(N)=O)cn1 value_observed="1 to 10 nM"
compound=CC[C@@H](Nc1cnc(C(N)=O)c(Nc2cc(F)c3ncccc3c2)n1)C(N)=O value_observed="1 to 10 nM"
compound=NC(=O)c1ncc(N[C@@H]2CCNC2)nc1Nc1cccc(-c2ncccn2)c1 value_observed="1 to 10 nM"
compound=NC(=O)c1ncc(N[C@@H]2CCNC2)nc1Nc1csc2ncccc12 value_observed="1 to 10 nM"
compound=CC[C@@H](Nc1cnc(C(N)=O)c(Nc2ccc(C(=O)N3CC(C#N)C3)nc2)n1)C(N)=O value_observed="1 to 10 nM"
compound="NC(=O)c1ncc(NC2CCC(N)CC2)nc1Nc1cccc(-n2nccn2)c1 (centres unmarked)" value_observed="1 to 10 nM"
